system: RARa homodimer (NR concentration 270 nM); assay: PBM binding z-score (relative to random genomic background probes); higher = stronger binding; sequences stand for … in GC…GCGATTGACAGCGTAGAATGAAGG
readout: PBM binding z-score

1. CCTTACGGGTCACTCCACGTTATAGCATCGGAGT; 0.911
2. TCATATAGGTAAACAGGTGAAAGACCGTAAGTTA; 1.07
3. TCGAGTAGGTTAGTGGGGGCATTCAGCCAACATA; 0.673
4. GCTAGCAGGCCATTTGGGTCACTCAGTGACGGGC; -0.725
5. ACTCTTAGTTGAGACGAGGGCAACCGATAGGTTG; -0.22
6. CCTAGCAGGCCTGGGTCACTCAAGCATTTCGCTT; 0.152
7. CCGACTGGGGAAGAAAGGTTACCATACCATCCGG; 0.0486
8. ACAGACAGTTGATGAAGGTAACTCAGGCTATCAT; 0.632
9. CGTCCAAGGTCAAGTTCAGTGAAAGAGACTCGAA; 2.56
10. CCTACTCGGCCACGAAAGGTCATTGATTCAGTGA; 1.61
11. CAGCCTAGGTCAGTGCCAGTATAGGAGGAACGTT; -0.0242
12. CAAACTAGGTCAATAGGTCAAAGTCCGCTTCCCG; 3.02

###

tested on: RARg:RXRa (NR concentration 270 nM, RXRa partner concentration 90 nM); assay: PBM binding z-score (relative to random genomic background probes); higher = stronger binding; sequences stand for … in GC…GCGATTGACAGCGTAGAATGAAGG
readout: PBM binding z-score

1) CCTTACGGGTCACTGACACGTTATAGCATTTGGA; 4.76
2) CCGACTGGGGCAAAGGTTCCCATACTCAGTACGA; 0.839
3) GGGACGAGGGCAAAGTTGATAGCATCTGTCGACG; 2.17
4) CCTATTGGTTGACCATAAGGGCAACCGAAGCTCG; 0.997
5) CGTCCAAGGTCAATGCTAGTTCAGTGAAAGCATT; 6.18
6) CGTCCAAGGTCTTAGGAGGTCAGTGAAGACAGAT; 2.51

###

tested on: VDR:RXRa (NR concentration 270 nM, RXRa partner concentration 90 nM); assay: PBM binding z-score (relative to random genomic background probes); higher = stronger binding; sequences stand for … in GC…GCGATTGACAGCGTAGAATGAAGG
Each entry below carries its recorded PBM binding z-score.
readout: PBM binding z-score

1. CAAACTAGGTCAAGGTCAATGTCGGTTTGTGCCA; 4.81
2. TCGAGTAGGTTACCAATTGGGCATTCAGCTTTCT; -0.197
3. TAATATAGGTAAAGGTGAAAGTCGAACGATATGA; 1
4. CTCGAAAGGTCGGGCTCAGGTGAGTATACCAAAC; 1.5
5. AGAATGAGTTTATACGTAGATCAGGGAAGAAAGT; 1.71
6. TCATATAGGGAAAGGTGAAAGTCGAACGATATGA; 0.965

###

system: RXRa homodimer (NR concentration 180 nM); assay: PBM binding z-score (relative to random genomic background probes); higher = stronger binding; sequences stand for … in GC…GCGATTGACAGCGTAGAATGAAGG
Here, each record is paired with measured PBM binding z-score data.
readout: PBM binding z-score

1. ATCGAAAGGTCGAGGTGCGTATAGAGAAAGGGAA; 4.37
2. CGTTACGGGTCACTGACAGGTTATAGCATTTGGA; 5.12
3. ACTATTAGTTGAAACGAGGGCAACCGATAGGTTG; 0.792
4. CCGACTGGTGCAAAGGTTACCATACTCAGTACGA; 2.93
5. ACTTACGGGTCAACGAGGCTATAGCACGCGTATA; 5.06
6. CCTAGCACGCCAATCTGGGTCACTCAAGGCTTGA; 0.974

###

test system: THRa:RXRa (NR concentration 90 nM, RXRa partner concentration 90 nM); assay: PBM binding z-score (relative to random genomic background probes); higher = stronger binding; sequences stand for … in GC…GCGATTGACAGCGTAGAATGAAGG
Label Condition met when PBM binding z-score is at or above 2; anything below gets Condition not met.

1) CAAACTAGGTCAAGAGGTCAAAATCCGCTTCCCG; Condition met
2) CAAACTAGGTCAAAGCTCAAAGTCGAGCCAACCA; Condition met
3) CATACAGGGTCAGCTAGGCCAGGGTAGGGACGGC; Condition met
4) GCTGCTAGGTCAACCGATGGTCAGCTAAAGCTCG; Condition met
5) TCATATACGTAATACAGGTGAAAGTCGGCATCTA; Condition not met
6) TCATATAGGTACACAGGTGAAAGTCCGTAAGTTA; Condition not met
7) TTACCAAGGTGAGCTGCGGTCGTTGATCCAACTC; Condition met
8) CCTTATGGGTCAAGGTTATAGCACGGGTGGTACG; Condition met
9) CGTCACAGTTCAACTAAGGTAACGTAAAGCACGC; Condition met
10) TCTTTTAGATCAATAGAGGTTAAGAAAGTGCGCT; Condition met
11) ACAGACAGGTGAGTGAAGGTAACTAAGCTGGACG; Condition not met
12) GATACAGGGTCAGCTAGAGGCCAAAGTATGGAAA; Condition met
13) CCTACAGGGCCATCAGGTCATTGATATCAACGTT; Condition met
14) TCTCGGAGGACACGAAAGGTCAGATCTCGACATC; Condition met
15) CCGACTGGGGCAGAAATGTTACCATACCATCCGG; Condition not met
16) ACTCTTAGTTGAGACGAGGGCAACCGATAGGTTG; Condition met
17) CGTCCAAGGTCAGAAAGGTCAGTGAATGCCGAGT; Condition met
18) ATATGTAGGTTAAGGGTGATTCAGGTTGGTTCGC; Condition not met
19) GGAACGAGGGCATTCAAGTTGATAGCATGGCGAT; Condition met
20) CCTAGCAGGCTAATCTGGGTCACTCAAGGCTTGA; Condition met
21) TTACAAAGGTGAAGGTCGTTGATCCCTCTGTAGA; Condition met
22) CTACCTAGGTGAACAAGGTCGTTGATTACTATTC; Condition met
23) CCTTACGGATCACTGACAGGTTATAGCATTTGGA; Condition not met
24) CGAACGAGGGCATGAGTTGATACCAAATGCCGAT; Condition not met
25) AGAAGGAGGTTACCAAAGATCAGGGAAACGCTTG; Condition not met

###

# PBM binding z-score per entry
system: RARb:RXRa (NR concentration 270 nM, RXRa partner concentration 90 nM); assay: PBM binding z-score (relative to random genomic background probes); higher = stronger binding; sequences stand for … in GC…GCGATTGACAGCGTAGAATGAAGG
readout: PBM binding z-score

1) TAGCCTAGGTCATGGGCCAGCATACCACGCGAAC; 3.79
2) TCTCGGAGGACACGAAGTTCAGAGCTTTCCAGAG; 2.36
3) GCTAGCAGGCAATTTGGGTCACTCAATGACGGGC; 0.971
4) GCTAGCAGGCCATTTGGGTCAATCAATGACGGGC; 1.3
5) TGTCAAAGTTCAAAGGTAACGTTAGTATCCACAC; 5.29
6) CGTCAAAGTTCAACTAAGGCAACGTAAAGCACGC; 5.21
7) ATCTCTAGGTAAAGATAGTTCAGTCAATGCAAAT; 0.692
8) TGAATGAGGTTAAAGATCACGGAACGTGGCGTCG; 2.18
9) TCATATAGGTAATACAGGTGAAATTCGGCATCTA; 0.602
10) TCTCGGAGGACACGAAGGGTCAGAGCTCGACATC; 3.14
11) TTACCAAGGTGAGCTGAGGTCGTTAATCCAACTC; 1.59
12) ATCTCTAGGTAGGACTCAGTTCAGTGAAGAACGC; 0.407
13) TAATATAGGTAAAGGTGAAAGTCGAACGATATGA; 2.03
14) TCATATAGGTAAATGCTAGGTGAAAGCCCGATCT; 0.444
15) TCTCGGAGGACACGACGGTCAGAGCTTTCCAGAG; 1.91
16) TCTTGTAGACCAAAGGTTAAGAAAGCCGAAGCCT; 2.03
17) ATATGTAGGTGATCGGGTCATTCAGTTTGCGCAT; 2.01
18) AGTCAAAGTTCAGGACGTGGTAACGTAAAGCACG; 4.15
19) AATACAGGGTCTTCGTAGGCCAGAGTACGCACAG; 0.544
20) CCGACTGGGGCACAGGTTACCATACTCAGTACGA; 1.07
21) CAAACTAGGTAACGAAAGGTCAAAGTCGAATGAC; 4.38
22) TCATATAGGTAAATGCTAGGTGTAAGTCCGATCT; 0.377
23) CCTTACGGGTCACTCCAGCTTATAGCATCGGAGT; 3.56
24) ATATGTGGGTTACATCCGGGTCATTCAGGCTATG; 2.01
25) ACTATTAGTTGAGACGATGGCAACCGATAGGTTG; -0.199
26) TCTGTTAGGTCAGTTGGTCAGCTAACGAGCTGCC; 3.71

Origin of measurements: the supplement of paper PMC6555819
